tested on: ATP; assay: switch fluorescence ratio, 500 uM ATP over buffer (Cy3 cluster intensity, sum of 5 cycles each) (fold (ratio)); higher = stronger signal-on switching upon ATP binding; sequences stand for … in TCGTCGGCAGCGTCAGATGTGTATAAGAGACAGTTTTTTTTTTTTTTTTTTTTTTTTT…TC; conditions: aptamer strand: ATP DNA aptamer (quencher-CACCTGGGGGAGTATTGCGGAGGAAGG + anchor), 100 nM annealed; ATP concentration: 500 uM;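 also: ATP exposure 15 min at 22 °C before imaging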
Assignment: determine reported switch fluorescence ratio for the given sequences.
Please respond with just the number, no unit label.

What the record says about CGGACCAGCG : switch fluorescence ratio is 0.965

What the record says about ATTTTACGTA : switch fluorescence ratio is 1.14

What the record says about GTATGTGGGT : switch fluorescence ratio is 1.02

What the record says about TAATGTGTCG : switch fluorescence ratio is 1.02

What the record says about CAATTCACCG : switch fluorescence ratio is 1.04

What the record says about TTGACAGAGT : switch fluorescence ratio is 1.01

What the record says about GGCCGTAGAA : switch fluorescence ratio is 0.985

What the record says about CGCGGGCACT : switch fluorescence ratio is 1.04

What the record says about CGCGGAGTAG : switch fluorescence ratio is 0.987

What the record says about GAGTTTTTGT : switch fluorescence ratio is 1.01

What the record says about CAAAAGAGTG : switch fluorescence ratio is 0.999

What the record says about AACCTTTCTG : switch fluorescence ratio is 1.5

What the record says about TTTTACAGCC : switch fluorescence ratio is 1.05

What the record says about TGCTGGCGCG : switch fluorescence ratio is 1

What the record says about ACGCCGTATG : switch fluorescence ratio is 1

What the record says about TACTGACTTG : switch fluorescence ratio is 0.989

What the record says about CGATGGCGGG : switch fluorescence ratio is 1.02

What the record says about TTGCATGGGC : switch fluorescence ratio is 1.05

What the record says about GCAGGGGGCG : switch fluorescence ratio is 1.04

What the record says about TACTCGGGAA : switch fluorescence ratio is 3.05

What the record says about GTGTAAGGG : switch fluorescence ratio is 1.03

What the record says about AGGCCCGTTT : switch fluorescence ratio is 1.02

What the record says about CGGTGCCGGT : switch fluorescence ratio is 0.984

What the record says about TTAGGGAAGT : switch fluorescence ratio is 0.991

What the record says about GCCGGCTTCT : switch fluorescence ratio is 1.02

What the record says about GGAATGTGCG : switch fluorescence ratio is 0.979

What the record says about TTAAGAAAAG : switch fluorescence ratio is 1.1

What the record says about TAGAAATGCG : switch fluorescence ratio is 1.04

What the record says about AACATTTTGC : switch fluorescence ratio is 0.994

What the record says about TGTGGTTTGT : switch fluorescence ratio is 1

What the record says about TGCATTTTAC : switch fluorescence ratio is 1.28

What the record says about GCAACCACCG : switch fluorescence ratio is 1.14

What the record says about TTTTAAGCCG : switch fluorescence ratio is 1.01

What the record says about ATCTATTGGG : switch fluorescence ratio is 0.991

What the record says about GTTTTAGCTT : switch fluorescence ratio is 1

What the record says about TAACTAATAA : switch fluorescence ratio is 1.01

What the record says about GCCTGTAAGT : switch fluorescence ratio is 0.989

What the record says about CTGGCCGGGC : switch fluorescence ratio is 1.03

What the record says about ATTTGTATGC : switch fluorescence ratio is 1

What the record says about CTAATAGTGC : switch fluorescence ratio is 1.02

What the record says about GGATGGACAG : switch fluorescence ratio is 1

What the record says about ACTAATGCGC : switch fluorescence ratio is 1.05

What the record says about GTTGGTTTGT : switch fluorescence ratio is 0.986

What the record says about GATTATGAGT : switch fluorescence ratio is 1.02

What the record says about ATGGAGTAAA : switch fluorescence ratio is 1.01

What the record says about GATATTTTGT : switch fluorescence ratio is 0.997

What the record says about CGGGGAGCGT : switch fluorescence ratio is 1

What the record says about ATTTTCAGGG : switch fluorescence ratio is 0.998

What the record says about TGTATAAAGG : switch fluorescence ratio is 1.01

What the record says about CGGTAATTTT : switch fluorescence ratio is 0.975

What the record says about TTTTCAGATT : switch fluorescence ratio is 0.96

What the record says about TTCGAGACTT : switch fluorescence ratio is 1.05

What the record says about TTCGGTGGGT : switch fluorescence ratio is 0.988

What the record says about TTATTACGCT : switch fluorescence ratio is 0.998

What the record says about TGGACCGGGG : switch fluorescence ratio is 1.02

What the record says about ATGGGGGGAA : switch fluorescence ratio is 0.996

What the record says about GTAATGCCAG : switch fluorescence ratio is 0.986

What the record says about GTTATAGTTT : switch fluorescence ratio is 0.985

What the record says about AATACCGGCA : switch fluorescence ratio is 1.04

What the record says about TGCATGTGGC : switch fluorescence ratio is 0.988

What the record says about TTTGTACTGG : switch fluorescence ratio is 1.01

What the record says about CCGGACTATC : switch fluorescence ratio is 2.4

What the record says about TTCACTTTGA : switch fluorescence ratio is 1.01

What the record says about AAATTGTATT : switch fluorescence ratio is 1

What the record says about GGGGACAGTG : switch fluorescence ratio is 1.01

What the record says about TACTACTTAT : switch fluorescence ratio is 1.04

What the record says about GGTTTAAGTC : switch fluorescence ratio is 1.06

What the record says about GTGGCTCTGC : switch fluorescence ratio is 0.973

What the record says about ACGTATATTG : switch fluorescence ratio is 1.06

What the record says about AGCGGCTAAT : switch fluorescence ratio is 0.981

What the record says about TTTTAAATAG : switch fluorescence ratio is 1.01

What the record says about GCATGAGGGT : switch fluorescence ratio is 1.03

What the record says about GGTTTTAGCT : switch fluorescence ratio is 0.997

What the record says about ATATGATAGA : switch fluorescence ratio is 0.992

What the record says about TGAGGTTAGA : switch fluorescence ratio is 1.03
